molecular target: UniProt P36897
Sequence (P36897 34-503): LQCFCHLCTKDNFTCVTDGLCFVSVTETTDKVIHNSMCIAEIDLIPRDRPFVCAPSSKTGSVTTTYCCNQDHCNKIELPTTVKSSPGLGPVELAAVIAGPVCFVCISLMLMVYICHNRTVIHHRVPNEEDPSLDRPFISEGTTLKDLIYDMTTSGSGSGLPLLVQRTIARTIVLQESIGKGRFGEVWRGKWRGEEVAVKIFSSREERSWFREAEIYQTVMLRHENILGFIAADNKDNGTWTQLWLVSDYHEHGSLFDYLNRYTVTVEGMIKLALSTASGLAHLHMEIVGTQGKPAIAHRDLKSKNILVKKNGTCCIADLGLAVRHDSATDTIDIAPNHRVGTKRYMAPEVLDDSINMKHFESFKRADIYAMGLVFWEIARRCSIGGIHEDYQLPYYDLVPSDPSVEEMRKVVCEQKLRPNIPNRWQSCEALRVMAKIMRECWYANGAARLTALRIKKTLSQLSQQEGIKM
Just a reminder that ties go to Not fulfilled: only IC50 strictly below 6 nM counts as Fulfilled.

Problem: Dear colleague, could you confirm whether IC50 of CCN(C)C(=O)N1Cc2nc(-c3cc(-c4c(-c5cccc(C)n5)nc5n4CCC5)ccn3)[nH]c2C1 falls below 6 nM? Thanks.
Result: Fulfilled

Problem: Same lookup for Cc1cccc(-c2nn(CC3CC3)cc2-c2ccnc(-c3nc4c([nH]3)CN(S(C)(=O)=O)C4)c2)n1 , please.
Result: Fulfilled

Problem: Same lookup for Cc1cccc(-c2nc3n(c2-c2ccnc(-c4nc5c([nH]4)CN(C4CCN(C)CC4)C5)c2)CCC3)n1 , please.
Result: Not fulfilled

Problem: Same lookup for Cc1cccc(-c2nc3n(c2-c2ccnc(-c4nc5c([nH]4)CN(C(=O)N4CCN(C)CC4)C5)c2)CCC3)n1 , please.
Result: Fulfilled

Problem: Same lookup for Cc1cccc(-c2nn(C(C)C)cc2-c2ccnc(-c3nc4c([nH]3)CN(S(C)(=O)=O)C4)c2)n1 , please.
Result: Fulfilled

Problem: Same lookup for Cc1cccc(-c2nc3n(c2-c2ccnc(-c4nc5c([nH]4)CN(S(C)(=O)=O)CC5)c2)CCC3)n1 , please.
Result: Fulfilled

Problem: Same lookup for Cc1cccc(-c2nn3c(c2-c2ccnc(-c4nc5c([nH]4)CN(C(=O)N(C)C)C5)c2)CCC3)n1 , please.
Result: Fulfilled

Problem: Same lookup for COC(=O)N1Cc2nc(-c3cc(-c4c(-c5cccc(C)n5)nc5n4CCC5)ccn3)[nH]c2C1 , please.
Result: Fulfilled

Problem: Same lookup for Cc1cccc(-c2nc3n(c2-c2ccnc(-c4nc5c([nH]4)CN(C(=O)N4CCOCC4)C5)c2)CCC3)n1 , please.
Result: Not fulfilled

Problem: Same lookup for Cc1cccc(-c2nc3n(c2-c2ccnc(-c4nc5c([nH]4)CN(C)C5)c2)CCC3)n1 , please.
Result: Not fulfilled

Continuing:
Problem: Dear colleague, could you confirm whether IC50 of Cc1cccc(-c2nc3n(c2-c2ccnc(-c4nc5c([nH]4)CNC5)c2)CCC3)n1 falls below 6 nM? Thanks.
Result: Not fulfilled

Problem: Same lookup for CC(=O)N1Cc2nc(-c3cc(-c4c(-c5cccc(C)n5)nc5n4CCC5)ccn3)[nH]c2C1 , please.
Result: Not fulfilled

Problem: Same lookup for Cc1cccc(-c2nc3n(c2-c2ccnc(-c4nc5c([nH]4)CN(CC(C)O)C5)c2)CCC3)n1 (centres unmarked) , please.
Result: Fulfilled

Problem: Same lookup for Cc1cccc(-c2nn3c(c2-c2ccnc(-c4nc5c([nH]4)CN(C(=O)C4CCN(C)CC4)C5)c2)CCC3)n1 , please.
Result: Fulfilled
